tested on: THRa homodimer (NR concentration 90 nM); test: PBM binding z-score (relative to random genomic background probes); higher = stronger binding; sequences stand for … in GC…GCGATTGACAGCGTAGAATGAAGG
Classify as follows. Reported PBM binding z-score greater than or equal to 0.1: T. Reported PBM binding z-score below: F.

Q: Quick check: does `TTACCAAGGGGAGCTGAGGTCGTTGATCCAACTC` have PBM binding z-score greater than or equal to 0.1?
A: T

Q: Entry `GCTTACGGATCAAAGGTTATAGCATGAATAGAAT` please
A: F

Q: Entry `AGAACGAGGGCACGCTGCGTTGATAGCAGAGTAG` please
A: F

Q: Entry `CCTTACGGTTCAAGGTTATAGCACGGGTGGTACG` please
A: T

Q: Entry `TCTGCTAGGTCAACGATGGTAAGCTAATCTGCTA` please
A: T

Q: Entry `GCTAGTTGGTGAGTAAAAGGTCACACACCGGTCG` please
A: T

Q: Entry `AGAACTAGGGCAATGAGTTGATAGCACGGGTGGC` please
A: F

Q: Entry `ATCTCTAGGTAAAGTTCAGAGAAAGATCGATAGA` please
A: F

Q: Entry `GCTTGTACATCAAGGTTAAGAAAGACTAAGCTAA` please
A: F

Q: Entry `ATATGTAGCTTATCGGGTCATTCAGTTTGCGCAT` please
A: T

Q: Entry `ATCGAAAGGTCGGCGAGGTGAGTATACACCGTTT` please
A: T

Q: Entry `AGTACAGGGTCACTAGGCCAGAGTAGGTACGAAT` please
A: T

Q: Entry `ACAGACAGGTGAGTGAAGGTAACTTAGCTGGACG` please
A: F

Q: Entry `TCTATTAGTTGAAGTGCAACCGACGAGTCCGTTT` please
A: T

Q: Entry `TCAGACAGGTGGAGGTAACTCAGGTACGCAGTCG` please
A: T

Q: Entry `TCATATAGGTAATACAGGTAAAAGTCGGCATCTA` please
A: T

Q: Entry `AGTCAAAGTTCACTAAGTAACGTAAGATTCAGCT` please
A: F

Q: Entry `CAAACTAGGTCACAGGAAGGTCAAAGTCCGCATG` please
A: T
